- test-system: GST-RIPK1 (recombinant GST-RIPK1 kinase domain (residues 1-327)) (Homo sapiens, UniProt Q13546)
- Construct: recombinant GST-RIPK1 kinase domain (residues 1-327) enzyme
- Sequence (Q13546 1-327): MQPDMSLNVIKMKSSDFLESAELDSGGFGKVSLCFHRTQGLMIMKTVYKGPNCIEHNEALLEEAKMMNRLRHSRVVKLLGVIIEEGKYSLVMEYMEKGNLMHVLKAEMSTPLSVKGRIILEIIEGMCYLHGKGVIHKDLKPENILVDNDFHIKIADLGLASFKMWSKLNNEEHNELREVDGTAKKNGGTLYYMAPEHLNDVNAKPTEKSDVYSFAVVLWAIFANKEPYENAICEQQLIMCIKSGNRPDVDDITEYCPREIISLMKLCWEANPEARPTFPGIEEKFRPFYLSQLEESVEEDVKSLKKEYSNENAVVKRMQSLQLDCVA
- procedure-text: RIPK1-ADP-Glo enzymatic assay
- experimental-conditions: 25 nM GST-RIPK1, 300 μM ATP, 3 μM dephosphorylated-MBP; 30 minutes pre-incubation, 150 minutes reaction; ten-point titration
experimental-endpoint: IC50 (nM)

Examples with their reported IC50 follow.
compound: CC(C)C12CC(C(=O)N3C[C@@H]4C[C@H]3c3cncc(C#N)c3O4)(C1)C2
IC50 / nM: 48
//
compound: O=C(N1C[C@@H]2C[C@H]1c1cncc(F)c1O2)C12CCC(C(F)(F)F)(CC1)C2
IC50 / nM: 20
//
compound: CC1(C(=O)N2C[C@@H]3C[C@H]2c2cncc(C#N)c2O3)CCOC1 (mixture of isomers)
IC50 / nM: 640

(a) N#Cc1cccc(C#Cc2cncc3c2O[C@H]2C[C@@H]3N(C(=O)C34CCC(F)(CC3)C4)C2)c1
(b) CC(C)(C(=O)N1C[C@H]2Cc3c(C#N)cncc3[C@@H]1C2)C(F)F (single isomer, unassigned)
(c) CC(C)(C(=O)N1C[C@@H]2C[C@H]1c1cncc(C#N)c1O2)C(F)(F)F
(d) CC(C)(CC(F)F)C(=O)N1C[C@@H]2C[C@H]1c1cncc(C#N)c1O2
# ascending order, key=IC50 Please express your ranking as an ordered list of the labels. a, c, d, b

(A) CC(C)(C(=O)N1C[C@@H]2C[C@H]1c1cncc(C#CC34CC(C(F)(F)F)(C3)C4)c1O2)C(F)F
(B) CC(F)(F)C(C)(C)C(=O)N1C[C@@H]2C[C@H]1c1cncc(C#Cc3ccc(F)cc3)c1O2
(C) CC(C)(C)C(=O)N1C[C@@H]2C[C@H]1c1cncc(Br)c1O2
(D) O=C(N1C[C@@H]2C[C@H]1c1cncc(Cl)c1O2)C12CCC(CC1)C2
# ascending order, key=IC50 Please express your ranking as an ordered list of the labels. D, B, C, A
(D: 20 nM, B: 34 nM, C: 394 nM, A: 1530 nM)

(I) N#Cc1cncc2c1O[C@H]1C[C@@H]2N(C(=O)C2(F)CCN(c3ccnc(Cl)c3)CC2)C1
(II) COc1ccc(C#Cc2cncc3c2O[C@H]2C[C@@H]3N(C(=O)C34CCC(C(F)(F)F)(CC3)C4)C2)cc1
(III) CC(F)(F)C1(C(=O)N2C[C@@H]3C[C@H]2c2cncc(C#N)c2O3)CC1
// sort entries: IC50, high to low Please express your ranking as an ordered list of the labels. III, I, II
(III: 221 nM, I: 35 nM, II: 18 nM)

(a) COC12CCC(C(=O)N3C[C@@H]4C[C@H]3c3cncc(C#N)c3O4)(CC1)C2
(b) CCC#Cc1cncc2c1O[C@H]1C[C@@H]2N(C(=O)C23CCC(F)(CC2)C3)C1
(c) CC1(C(=O)N2C[C@@H]3C[C@H]2c2cncc(C#N)c2O3)CCCC(F)(F)C1 (single isomer, unassigned) [Compound 1-40]
(d) CC(C)(C)CCC#Cc1cncc2c1O[C@H]1C[C@@H]2N(C(=O)C(C)(C)C(F)F)C1
(e) CC1(C(=O)N2C[C@@H]3C[C@H]2c2cncc(C#N)c2O3)CCC(F)(F)CC1
// sort entries: IC50, high to low Please express your ranking as an ordered list of the labels. e, d, a, c, b
